# log10 IC50 per entry for Serine/threonine-protein kinase B-raf (Homo sapiens, UniProt P15056, V600E)
A difference of one corresponds to tenfold IC50; all values are log10 with IC50 in µM.

Illustrative cases are given below, each with its answer.
COc1cc(Nc2cncc(Oc3cccc4c3CC/C4=N\O)n2)cc(OC)c1OC = 0.15
COc1cc(Nc2cncc(Oc3cccc4[nH]ccc34)n2)cc(OC)c1OC = 0.87

-- ask # query: log10 IC50 of entry COc1cc(Nc2cncc(Oc3ccc4c(c3)CCC4=O)n2)cc(OC)c1OC
-- reply 1.85

-- ask And for COc1cc(Nc2cncc(Oc3cccc4c3CCC4=O)n2)cc(OC)c1OC ?
-- reply 1.26

-- ask And for COc1cc(Nc2cncc(Oc3cccc4c3CCCC4=O)n2)cc(OC)c1OC ?
-- reply 1.46

----------
# IC50 per entry for Serine/threonine-protein kinase B-raf (Homo sapiens, UniProt P15056, V600E)
The reply should be a number in µM, with the unit left off.

Illustrative cases are given below, each with its answer.
COc1cc(Nc2cncc(-c3cccc(O)c3)n2)cc(OC)c1OC = 4
COc1cc(Nc2cncc(-c3cccc(NC(C)=O)c3)n2)cc(OC)c1OC = 3.5

-- ask Form entry - test system: Serine/threonine-protein kinase B-raf (Homo sapiens, UniProt P15056, V600E); read-out: IC50; compound: COc1cc(Nc2cncc(-c3ccc(C(N)=O)cc3)n2)cc(OC)c1OC
Sequence (P15056 2-766 V600E limits assumed): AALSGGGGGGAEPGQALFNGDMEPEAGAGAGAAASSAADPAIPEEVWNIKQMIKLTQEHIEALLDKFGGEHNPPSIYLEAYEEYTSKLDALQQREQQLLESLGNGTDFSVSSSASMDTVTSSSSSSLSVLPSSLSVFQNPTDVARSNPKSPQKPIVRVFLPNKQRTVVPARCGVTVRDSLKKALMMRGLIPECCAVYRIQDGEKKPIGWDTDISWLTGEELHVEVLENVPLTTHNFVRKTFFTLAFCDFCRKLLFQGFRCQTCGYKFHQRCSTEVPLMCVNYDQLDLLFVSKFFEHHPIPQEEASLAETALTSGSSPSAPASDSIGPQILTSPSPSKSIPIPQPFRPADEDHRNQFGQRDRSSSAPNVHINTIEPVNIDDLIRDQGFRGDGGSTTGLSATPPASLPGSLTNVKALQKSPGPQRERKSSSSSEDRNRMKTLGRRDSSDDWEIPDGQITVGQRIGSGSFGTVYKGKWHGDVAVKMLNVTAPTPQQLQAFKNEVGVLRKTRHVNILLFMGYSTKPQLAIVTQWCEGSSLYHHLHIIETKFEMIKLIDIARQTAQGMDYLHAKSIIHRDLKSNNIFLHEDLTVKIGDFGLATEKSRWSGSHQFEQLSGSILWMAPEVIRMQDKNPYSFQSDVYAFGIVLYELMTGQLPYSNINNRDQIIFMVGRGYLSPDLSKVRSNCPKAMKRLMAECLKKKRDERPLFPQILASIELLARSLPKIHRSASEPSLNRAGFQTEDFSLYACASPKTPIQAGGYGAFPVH
-- reply 1.12
